Test system: HOP-62 NSCLC
Assay: NCI tumour cell line growth inhibition, 48 h
Entries annotated with measured TGI

Illustrative cases are given below, each with its answer.
1. O=C1OC(O)c2cc3c(cc21)OCO3 (stereo not given); > 100 µM
2. O=C(c1ccc(Cl)cc1)c1no[n+]([O-])c1C(=O)c1ccc(Cl)cc1; > 74.7 µM
3. COc1cc(OC)c2c(c1)C(=O)C(CC1(C)OCCCO1)=CC2=O; 33.4 µM
4. COC(=O)CN(CC1O[C@@H]2OC(C)(C)O[C@@H]2C1N=[N+]=[N-])C(=O)OCc1ccccc1 (stereo not given in full); > 100 µM
5. C=CCN1CCN([C@H](c2ccc(C(=O)N(CC)CC)cc2)c2cccc(OC)c2)CC1; > 25 µM
6. CC(C)=[CH][Sb]([Br])([CH]=C(C)C)([CH]=C(C)C)[c]1ccccc1; > 100 µM

Prompt line: Provide only the value of recorded TGI for c1cc2c(s1)SSSSS2
Response line: 55.3 µM

Prompt line: Provide only the value of recorded TGI for CC(=O)O[C@H]1C(=O)[C@@]2(C)[C@H]([C@H](OC(=O)c3ccccc3)[C@]3(O)C[C@H](OC(=O)[C@H](O)[C@@H](NC(=O)c4ccccc4)c4ccccc4C)C(C)=C1C3(C)C)[C@]1(OC(C)=O)CO[C@@H]1C[C@@H]2O
Response line: > 25 µM

Prompt line: Provide only the value of recorded TGI for C[n+]1c(-c2ccccc2)c2cc(N)ccc2c2ccccc21
Response line: 38.2 µM

Prompt line: Provide only the value of recorded TGI for COc1ccc(C(=O)NCCC2CN(S(=O)(=O)C(F)(F)F)c3ccccc32)c(OC)c1 (stereo not given)
Response line: > 100 µM

Prompt line: Provide only the value of recorded TGI for CC(C)OC(=O)[C@@H]1OC(C)(C)O[C@H]1C(=O)OC(C)C
Response line: > 100 µM

Prompt line: Provide only the value of recorded TGI for COC(=O)/C(=N\NC(=O)c1ccccc1O)C(C#N)c1ccccc1 (stereo not given)
Response line: > 50 µM

Prompt line: Provide only the value of recorded TGI for c1ccc2c(c1)SC1=C(SC(=C3SC4=C(S3)Sc3ccccc3S4)S1)S2
Response line: > 100 µM

Prompt line: Provide only the value of recorded TGI for COc1cc2c(cc1I)-c1c(cc(OC)c(OC)c1OC)CC[C@@H]2NC(C)=O
Response line: > 33 µM

====

Tested on: CAKI-1 renal
Assay: NCI tumour cell line growth inhibition, 48 h
Entries annotated with measured GI50

Illustrative cases are given below, each with its answer.
1. O=C(/C=C/c1ccc(Cl)cc1)c1ccc(Nc2nc(Nc3ccc(F)cc3)nc(Nc3ccc(F)cc3)n2)cc1; 80.4 µM
2. c1ccc2cc(C[n+]3ccn(CCCCCCCCCCCCn4cc[n+](Cc5ccc6ccccc6c5)c4)c3)ccc2c1; 3.55 µM
3. Cn1ccc(=O)c2c(O)c3ccccc3c(O)c21; 57 µM

API: the following record is the query input.
Prompt line: Provide only the value of recorded GI50 for COc1cc2c(cc1OCCCCCn1c(-c3ccc(OCc4ccccc4)cc3)nc3cc(N4CCOCC4)ccc31)N=C[C@@H]1CCCN1C2=O
Response line: 1.43 µM

====

Tested on: HL-60(TB) leukemia
Assay: NCI tumour cell line growth inhibition, 48 h
PROPERTY_NAME: TGI

Illustrative cases are given below, each with its answer.
1) CCOc1ccc(N=Nc2ccc3oc(=O)c(/C(C)=N/NC(=O)CC(=O)Nc4cccc(OC)c4)cc3c2)cc1; 16.1 µM
2) CC1=CC(C)(C)[C@H]2O[C@@]3(O)C[C@]4(C)[C@H]5C[C@@](C(C)C)(O[C@H]4c4ccoc4)O[C@H]4[C@]5(C3)O[C@@]1(O)[C@]24O; > 100 µM
3) CC(=O)/C=C/c1ccc(OCc2ccc(C(C)(C)C)cc2)cc1; > 1000 µM

Prompt line: Provide only the value of recorded TGI for CC12CP(=O)(c3ccccc3)CC1c1ccccc1C2c1ccccc1 (stereo unspecified)
Response line: 28.5 µM

Prompt line: Provide only the value of recorded TGI for C#CCn1cnc2cnc(Nc3cccc(NC(=O)CCl)c3)nc21
Response line: 41.3 µM

Prompt line: Provide only the value of recorded TGI for CC(=O)NS(=O)(=O)c1ccc(-n2nc(-c3ccc(Cl)cc3)cc2-c2cc(O)ccc2O)cc1
Response line: > 100 µM

Prompt line: Provide only the value of recorded TGI for CCN(CC)Cc1cc(Nc2c3ccc(Cl)cc3nc3ccc(OC)cc23)ccc1O
Response line: 25.5 µM
